Recorded measurements of pEC50, one per entry
# targetEntity: 17β-HSD10 (Homo sapiens)
# Construct: Histev (histidine tag with TEV site) (N, cleaved yes)
# protocolDetails: 17β-HSD10 (ABAD) enzyme inhibition assay, NADH oxidation read at 340 nm (primary screen and dose response)
# studyConditions: recombinant 17βHSD10 enzyme assay
Remember the convention: pEC50 equals -log10 of concentration in molar.

> print(dat)
                                   molecule  endpointresult
1  COc1ccc(C(=O)N(CC(C)C)c2cccc(N(C)Cc3c[nH]cn3)c2)c(F)c1            6.61
2  Cc1ccsc1C(=O)N1CCC[C@@H]1c1ccccc1-c1cnn(C)c1            6.03
3  COc1cccc(-c2ccccc2[C@H]2CCCN2C(=O)c2cccs2)c1            6.32
4  COc1cccc(-c2ccccc2[C@@H]2CCCN2C(=O)c2[nH]ncc2Cl)c1 (racemic) [ESC1002626]            6.34
5  Cc1ccsc1C(=O)N1CCC[C@H]1c1ccccc1-c1ccc(C(F)(F)F)cc1            6.24

Alright, here's another molecule for you.
Entry CN(Cc1c[nH]cn1)c1cccc(N(CC2CC2)C(=O)c2ccccc2F)c1 , 17β-HSD10 (Homo sapiens) data, pEC50 value: 6.15

----------
# targetEntity: 17β-HSD10 (Homo sapiens, UniProt Q99714)
# Construct: Histev (histidine tag with TEV site) (N, cleaved yes); made in house; host or cells: E. coli BL21-CodonPlus
# Sequence (Q99714 whole entry): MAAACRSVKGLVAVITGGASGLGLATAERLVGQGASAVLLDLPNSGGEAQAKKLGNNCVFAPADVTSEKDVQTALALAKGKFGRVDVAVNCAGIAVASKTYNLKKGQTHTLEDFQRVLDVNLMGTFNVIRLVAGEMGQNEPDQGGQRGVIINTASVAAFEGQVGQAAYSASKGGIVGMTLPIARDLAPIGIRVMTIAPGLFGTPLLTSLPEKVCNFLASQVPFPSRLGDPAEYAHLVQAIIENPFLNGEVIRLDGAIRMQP
# protocolDetails: 17β-HSD10 (ABAD) enzyme inhibition assay, NADH oxidation read at 340 nm (primary screen and dose response)
# Type: biochemical
# studyConditions: recombinant 17βHSD10 enzyme assay, curve fit
quantityKind: Max. Fit
Give your answer as a number; write no unit.

> print(dat)
                                   compound  endpointresult
1  Cc1ccc(C(=O)N(CC(C)C)c2cccc(N(C)Cc3c[nH]cn3)c2)c(C)c1             104
2  COc1ccc(-c2ccccc2[C@H]2CCCN2C(=O)c2ccccc2F)cn1 (stereo in doubt)              57
3  CC(C)N(C(=O)c1ccccc1F)c1cccc(N(C)Cc2cnc[nH]2)c1             101
4  CC(C)CN(C(=O)c1ccc(Cl)cc1F)c1cccc(N(C)Cc2cnc[nH]2)c1             101
5  Cc1ccsc1C(=O)N1CCC[C@H]1c1ccccc1-c1ccc(S(C)(=O)=O)cc1             101
6  Cc1ccsc1C(=O)N1CCC[C@H]1c1ccccc1-c1cccc(C(F)(F)F)c1 (racemic) [ESC1002790]              93

Entry Cc1ccsc1C(=O)N1CCC[C@@H]1c1ccccc1-c1cccnc1 , 17β-HSD10 (Homo sapiens, UniProt Q99714) data, Max. Fit value: 97

Entry Cc1ccsc1C(=O)N1CCC[C@H]1c1ccccc1-c1ccccc1Cl [ESC1002324] , 17β-HSD10 (Homo sapiens, UniProt Q99714) data, Max. Fit value: 102

Entry COc1ccc(-c2ccccc2C2CCCN2C(=O)c2sccc2C)cn1 (racemic) , 17β-HSD10 (Homo sapiens, UniProt Q99714) data, Max. Fit value: 98

Entry COc1ccc(C(=O)N(CC(C)C)c2cccc(N(C)Cc3c[nH]cn3)c2)c(F)c1 , 17β-HSD10 (Homo sapiens, UniProt Q99714) data, Max. Fit value: 97

Entry COc1cc(-c2ccccc2[C@@H]2CCCN2C(=O)c2sccc2Cl)ccn1 (racemic) , 17β-HSD10 (Homo sapiens, UniProt Q99714) data, Max. Fit value: 97

Entry COCCN(C(=O)c1ccccc1F)c1cccc(N(C)Cc2c[nH]cn2)c1 , 17β-HSD10 (Homo sapiens, UniProt Q99714) data, Max. Fit value: 100

Entry Cc1ccsc1C(=O)N1CCC[C@@H]1c1ccccc1-c1cnn(C2CCNCC2)c1 , 17β-HSD10 (Homo sapiens, UniProt Q99714) data, Max. Fit value: 95
